Values compiled from the Immune Epitope Database (IEDB).

- Tgt: HLA-A*02:02
- Experiment Description: IEDB peptide-MHC binding, purified MHC/competitive/radioactivity; filed as Kd, often an IC50 or EC50 that approximates it; bounds were set here for any values at or beyond the usual limits of such assays
- Measurement Setup: source organism: Vaccinia virus WR
Measured Endpoint: Kd (µM)
Supply the numeric figure in µM, leaving out any unit text.

Consider the reported Kd for these sequences:
{"Query Sequence": "NIKISLNEIL", "Measured Endpoint": "Kd", "Reported Value": 0.705}
{"Query Sequence": "PLKDVERLQM", "Measured Endpoint": "Kd", "Reported Value": 6.16}
{"Query Sequence": "DITNILGGV", "Measured Endpoint": "Kd", "Reported Value": 9.88}

Next up:
What the record says about `YIKDLKHAT` : Kd is 18.5

* * *

- Tgt: HLA-A*68:01
- Experiment Description: IEDB peptide-MHC binding, purified MHC/competitive/radioactivity; filed as Kd, often an IC50 or EC50 that approximates it; bounds were set here for any values at or beyond the usual limits of such assays
- Measurement Setup: source organism: SARS coronavirus Tor2
Catalogue of Kd readings, one per entry.
Supply the numeric figure in nM, leaving out any unit text.

Consider the reported Kd for these sequences:
{"Query Sequence": "ALSEAREHLK", "Tgt": "HLA-A*68:01", "Kd [nM]": 2960}
{"Query Sequence": "FTTSLSLHK", "Tgt": "HLA-A*68:01", "Kd [nM]": 271}
{"Query Sequence": "TLLPLTQYNR", "Tgt": "HLA-A*68:01", "Kd [nM]": 3410}

Next up:
What the record says about `ASCDAIMTR` : Kd is 1440

* * *

- Tgt: HLA-A*68:01
- Experiment Description: IEDB peptide-MHC binding, purified MHC/competitive/radioactivity; filed as Kd, often an IC50 or EC50 that approximates it; bounds were set here for any values at or beyond the usual limits of such assays
- Measurement Setup: source organism: Vaccinia virus WR
Catalogue of Kd readings, one per entry.

Consider the reported Kd for these sequences:
{"Query Sequence": "DMQKFTILEY", "Tgt": "HLA-A*68:01", "Kd": "≥ 24.5 µM"}
{"Query Sequence": "KSCICYGSY", "Tgt": "HLA-A*68:01", "Kd": "≥ 29.7 µM"}
{"Query Sequence": "KFRPGSLIY", "Tgt": "HLA-A*68:01", "Kd": "≥ 77.7 µM"}

Next up:
What the record says about `VALYRRIQRR` : Kd is ≥ 30.5 µM

* * *

- Tgt: HLA-A*02:02
- Experiment Description: IEDB peptide-MHC binding, purified MHC/competitive/radioactivity; filed as Kd, often an IC50 or EC50 that approximates it; bounds were set here for any values at or beyond the usual limits of such assays
- Measurement Setup: source organism: Vaccinia virus WR
Catalogue of Kd readings, one per entry.

Consider the reported Kd for these sequences:
{"Query Sequence": "VQLPKRGVRV", "Kd": "≥ 33.7 µM"}
{"Query Sequence": "IPYLRNYMVI", "Kd": "≥ 70 µM"}

Next up:
What the record says about `KAMHDKKIDI` : Kd is ≥ 70 µM

* * *

Catalogue of Kd readings, one per entry.
- Tgt: HLA-B*40:01
- Experiment Description: IEDB peptide-MHC binding, purified MHC/competitive/radioactivity; filed as Kd, often an IC50 or EC50 that approximates it; bounds were set here for any values at or beyond the usual limits of such assays
- Measurement Setup: source organism: SARS coronavirus Tor2

{"Query Sequence": "SDYDYYRYNL", "Tgt": "HLA-B*40:01", "Measured Endpoint": "Kd", "Reported Value": "≥ 69.6 µM"}
{"Query Sequence": "NEYRQYLDAY", "Tgt": "HLA-B*40:01", "Measured Endpoint": "Kd", "Reported Value": "≥ 21.9 µM"}

Next up:
What the record says about `YDYYRYNLPT` : Kd is ≥ 69.6 µM

* * *

- Tgt: HLA-A*03:01
- Experiment Description: IEDB peptide-MHC binding, purified MHC/competitive/radioactivity; filed as Kd, often an IC50 or EC50 that approximates it; bounds were set here for any values at or beyond the usual limits of such assays
- Measurement Setup: source organism: Vaccinia virus WR
pKd: −log10 of the molar value.
Catalogue of pKd readings, one per entry.

Consider the reported pKd for these sequences:
{"Query Sequence": "PIGMQFDKVY", "pKd": "≤ 4.15"}
{"Query Sequence": "TVVRDFENY", "pKd": "≤ 4.20"}
{"Query Sequence": "DMQKFTILEY", "pKd": "≤ 4.27"}
{"Query Sequence": "VMNIERQDY", "pKd": "≤ 4.21"}
{"Query Sequence": "DSEPISILDR", "pKd": "≤ 4.15"}

Next up:
What the record says about `VALYRRIQRR` : pKd is ≤ 4.15

* * *

- Tgt: HLA-A*31:01
- Experiment Description: IEDB peptide-MHC binding, purified MHC/competitive/radioactivity; filed as Kd, often an IC50 or EC50 that approximates it; bounds were set here for any values at or beyond the usual limits of such assays
- Measurement Setup: source organism: SARS coronavirus Tor2
Catalogue of pKd readings, one per entry.
pKd is a log-scale quantity: -log10 of the concentration expressed in molar.

What the record says about `SFYVYANGGR` : pKd is 7.05

What the record says about `SVVQKPVDVK` : pKd is 5.10

What the record says about `ASCDAIMTR` : pKd is 7.09

What the record says about `SLYMAISPK` : pKd is 6.00

What the record says about `RIDGAHLTK` : pKd is 5.74

What the record says about `KLLQTLVLK` : pKd is 5.61

What the record says about `TSSTCMMCYK` : pKd is 7.07

* * *

- Tgt: HLA-A*68:01
- Experiment Description: IEDB peptide-MHC binding, purified MHC/competitive/radioactivity; filed as Kd, often an IC50 or EC50 that approximates it; bounds were set here for any values at or beyond the usual limits of such assays
- Measurement Setup: source organism: SARS coronavirus Tor2
pKd: −log10 of the molar value.
Catalogue of pKd readings, one per entry.

Consider the reported pKd for these sequences:
{"Query Sequence": "RQFHQKLLK", "Measured Endpoint": "pKd", "Reported Value": "≤ 4.40"}
{"Query Sequence": "RIDGAHLTK", "Measured Endpoint": "pKd", "Reported Value": "≤ 4.59"}

What the record says about `KLLQTLVLK` : pKd is ≤ 4.40
